Test system: COR-L105 (Lung Adenocarcinoma)
Assay: Bliss excess, mean over the matrix (fraction); higher = more synergy
Label t for high-side Bliss excess (at or above -0.05) and f for low-side Bliss excess (below it).

compound | group_label
CCN(CCO)CCCOc1ccc2c(Nc3cc(CC(=O)Nc4cccc(F)c4)[nH]n3)ncnc2c1 [AZD2811] + C=CCn1c(=O)c2cnc(Nc3ccc(N4CCN(C)CC4)cc3)nc2n1-c1cccc(C(C)(C)O)n1 [AZD1775] (first compound max 1 µM, partner max 1 µM) | t
CC1(C)CCC(CN2CCN(c3ccc(C(=O)NS(=O)(=O)c4ccc(NCC5CCOCC5)c([N+](=O)[O-])c4)c(Oc4cnc5[nH]ccc5c4)c3)CC2)=C(c2ccc(Cl)cc2)C1 [Venetoclax] + COc1cc(Nc2ncc3c(n2)-c2ccc(Cl)cc2C(c2c(F)cccc2OC)=NC3)ccc1C(=O)O [Alisertib] (first compound max 1 µM, 7x7, partner max 10 µM) | f
CC(=O)c1c(C)c2cnc(Nc3ccc(N4CCNCC4)cn3)nc2n(C2CCCC2)c1=O [Palbociclib] + Cn1cnc2c(F)c(Nc3ccc(Br)cc3Cl)c(C(=O)NOCCO)cc21 [Selumetinib] (first compound max 10 µM, 7x7, partner max 10 µM) | t
CN(CCO)CC[C@H](CSc1ccccc1)Nc1ccc(S(=O)(=O)NC(=O)c2ccc(N3CCC([C@@H](O)c4ccccc4-c4ccc(Cl)cc4)CC3)cc2)cc1S(=O)(=O)C(F)(F)F [AZD4320] + C[C@@H]1COCCN1C2=NC(=NC(=C2)C3(CC3)[S@](=N)(=O)C)C4=C5C=CNC5=NC=C4 [AZD6738] (first compound max 1 µM, 7x7, partner max 10 µM) | f
CN(CCO)CC[C@H](CSc1ccccc1)Nc1ccc(S(=O)(=O)NC(=O)c2ccc(N3CCC([C@@H](O)c4ccccc4-c4ccc(Cl)cc4)CC3)cc2)cc1S(=O)(=O)C(F)(F)F [AZD4320] + C1CN(CCC1(C(=O)N[C@@H](CCO)C2=CC=C(C=C2)Cl)N)C3=NC=NC4=C3C=CN4 [Capivasertib] (first compound max 1 µM, 7x7, partner max 3 µM) | t

---

Test system: GCIY (Gastric Carcinoma)
Test: combination Emax (second highest fraction inhibited in the dose matrix, 72 h); higher = more inhibition; extreme values may be limits of the assay
Label condition met for high-side combination Emax (at or above 0.5) and condition not met for low-side combination Emax (below it).

compound | group_label
CN(C)CCCOc1ccc(-c2ccc3ncc4c(c3c2)n(C2CCOCC2)c(=O)n4C)cn1 [AZD0156] + CCN(CCO)CCCOc1ccc2c(Nc3cc(CC(=O)Nc4cccc(F)c4)[nH]n3)ncnc2c1 [AZD2811] (first compound max 1 µM, 7x7, partner max 1 µM) | condition not met
CC1(C)CCC(CN2CCN(c3ccc(C(=O)NS(=O)(=O)c4ccc(NCC5CCOCC5)c([N+](=O)[O-])c4)c(Oc4cnc5[nH]ccc5c4)c3)CC2)=C(c2ccc(Cl)cc2)C1 [Venetoclax] + COc1cc(Nc2ncc3c(n2)-c2ccc(Cl)cc2C(c2c(F)cccc2OC)=NC3)ccc1C(=O)O [Alisertib] (first compound max 1 µM, 7x7, partner max 10 µM) | condition met
CS(=O)(=O)CCNCc1ccc(-c2ccc3ncnc(Nc4ccc(OCc5cccc(F)c5)c(Cl)c4)c3c2)o1 [Lapatinib] + Cn1cnc2c(F)c(Nc3ccc(Br)cc3Cl)c(C(=O)NOCCO)cc21 [Selumetinib] (first compound max 10 µM, 7x7, partner max 10 µM) | condition met
N#Cc1cnc(Nc2cc(NC[C@H]3CNCCO3)c(C(F)(F)F)cn2)cn1 [SRA737] + C=CCn1c(=O)c2cnc(Nc3ccc(N4CCN(C)CC4)cc3)nc2n1-c1cccc(C(C)(C)O)n1 [AZD1775] (first compound max 10 µM, partner max 1 µM) | condition met
CC(=O)c1c(C)c2cnc(Nc3ccc(N4CCNCC4)cn3)nc2n(C2CCCC2)c1=O [Palbociclib] + Cc1c2c(nn1C)CSCc1cc(n(C)n1)CSc1cc(c3ccccc3c1)OCCCc1c(C(=O)O)n(C)c3c-2c(Cl)ccc13 [AZD5991] (first compound max 10 µM, 7x7, partner max 1 µM) | condition not met

---

Reported Bliss excess values for a set of compounds
Test system: SUP-HD1 (Hodgkin's Lymphoma)
Assay: Bliss excess, mean over the matrix (fraction); higher = more synergy

compound | Bliss excess
CN(CCO)CC[C@H](CSc1ccccc1)Nc1ccc(S(=O)(=O)NC(=O)c2ccc(N3CCC([C@@H](O)c4ccccc4-c4ccc(Cl)cc4)CC3)cc2)cc1S(=O)(=O)C(F)(F)F [AZD4320] + C[C@@H]1COCCN1C2=NC(=NC(=C2)C3(CC3)[S@](=N)(=O)C)C4=C5C=CNC5=NC=C4 [AZD6738] (first compound max 1 µM, 7x7, partner max 10 µM) | -0.0207
COc1cccc(OCCCN)c1-c1cc(Nc2cnc(C#N)cn2)n[nH]1 [Prexasertib] + C[C@@H]1COCCN1C2=NC(=NC(=C2)C3(CC3)[S@](=N)(=O)C)C4=C5C=CNC5=NC=C4 [AZD6738] (first compound max 1 µM, 7x7, partner max 10 µM) | -0.0809

---

Test system: DK-MG (Glioblastoma)
Assay: Bliss excess, mean over the matrix (fraction); higher = more synergy
measured_parameter: Bliss excess

compound | measured_parameter | result
Cc1c2c(nn1C)CSCc1cc(n(C)n1)CSc1cc(c3ccccc3c1)OCCCc1c(C(=O)O)n(C)c3c-2c(Cl)ccc13 [AZD5991] + CC1(C)CCC(CN2CCN(c3ccc(C(=O)NS(=O)(=O)c4ccc(NCC5CCOCC5)c([N+](=O)[O-])c4)c(Oc4cnc5[nH]ccc5c4)c3)CC2)=C(c2ccc(Cl)cc2)C1 [Venetoclax] (first compound max 1 µM, 7x7, partner max 1 µM) | Bliss excess | -0.0696

---

Tested on: MRK-nu-1 (Breast Carcinoma)
Assay: Bliss excess, mean over the matrix (fraction); higher = more synergy
Reported Bliss excess values for a set of compounds
measured_parameter: Bliss excess

compound | result
CN(CCO)CC[C@H](CSc1ccccc1)Nc1ccc(S(=O)(=O)NC(=O)c2ccc(N3CCC([C@@H](O)c4ccccc4-c4ccc(Cl)cc4)CC3)cc2)cc1S(=O)(=O)C(F)(F)F [AZD4320] + Cn1cnc2c(F)c(Nc3ccc(Br)cc3Cl)c(C(=O)NOCCO)cc21 [Selumetinib] (first compound max 1 µM, 7x7, partner max 3 µM) | -0.0013
C=CCn1c(=O)c2cnc(Nc3ccc(N4CCN(C)CC4)cc3)nc2n1-c1cccc(C(C)(C)O)n1 [AZD1775] + C[C@@H]1COCCN1C2=NC(=NC(=C2)C3(CC3)[S@](=N)(=O)C)C4=C5C=CNC5=NC=C4 [AZD6738] (first compound max 1 µM, partner max 10 µM) | 0.0633
O=C(c1cc(Cc2n[nH]c(=O)c3ccccc23)ccc1F)N1CCN(C(=O)C2CC2)CC1 [Olaparib] + Cc1c2c(nn1C)CSCc1cc(n(C)n1)CSc1cc(c3ccccc3c1)OCCCc1c(C(=O)O)n(C)c3c-2c(Cl)ccc13 [AZD5991] (first compound max 10 µM, 7x7, partner max 1 µM) | 0.0135
Cc1c2c(nn1C)CSCc1cc(n(C)n1)CSc1cc(c3ccccc3c1)OCCCc1c(C(=O)O)n(C)c3c-2c(Cl)ccc13 [AZD5991] + CCN(CCO)CCCOc1ccc2c(Nc3cc(CC(=O)Nc4cccc(F)c4)[nH]n3)ncnc2c1 [AZD2811] (first compound max 1 µM, 7x7, partner max 1 µM) | 0.0321

---

Test system: TOV-21G (Ovarian Carcinoma)
Experiment: Bliss excess, mean over the matrix (fraction); higher = more synergy
Reported Bliss excess values for a set of molecules
measured_parameter: Bliss excess

molecule | measured_target | number
COc1nnc2ccc(N3CCC(c4ccc(OCCN5CCN(C)C(=O)[C@H]5C)cc4)CC3)nn12 [AZD5153] + CN(CC[C@H](CSC1=CC=CC=C1)NC2=C(C=C(C=C2)S(=O)(=O)NC(=O)C3=CC=C(C=C3)N4CCC(CC4)[C@H](C5=CC=CC=C5C6=CC=C(C=C6)Cl)O)S(=O)(=O)C(F)(F)F)CCO [AZD4320] (first compound max 1 µM, 7x7, partner max 1 µM) | TOV-21G (Ovarian Carcinoma) | 0.0211
Cc1c2c(nn1C)CSCc1cc(n(C)n1)CSc1cc(c3ccccc3c1)OCCCc1c(C(=O)O)n(C)c3c-2c(Cl)ccc13 [AZD5991] + CN(C)CCCOc1ccc(-c2ccc3ncc4c(c3c2)n(C2CCOCC2)c(=O)n4C)cn1 [AZD0156] (first compound max 1 µM, 7x7, partner max 1 µM) | TOV-21G (Ovarian Carcinoma) | -0.0213

---

System: NCI-H1048 (Small Cell Lung Carcinoma)
Test: combination Emax (second highest fraction inhibited in the dose matrix, 72 h); higher = more inhibition; extreme values may be limits of the assay
Reported combination Emax values for a set of compounds

compound | combination Emax
Cc1cc2ncnn2cc1Nc1ncc2c(n1)n(C1CCOCC1)c(=O)n2C [AZD7648] + C[C@@H]1COCCN1C2=NC(=NC(=C2)C3(CC3)[S@](=N)(=O)C)C4=C5C=CNC5=NC=C4 [AZD6738] (first compound max 10 µM, 7x7, partner max 10 µM) | 0.508
COc1cccc(OCCCN)c1-c1cc(Nc2cnc(C#N)cn2)n[nH]1 [Prexasertib] + O=C(c1cc(Cc2n[nH]c(=O)c3ccccc23)ccc1F)N1CCN(C(=O)C2CC2)CC1 [Olaparib] (first compound max 1 µM, 7x7, partner max 10 µM) | 0.894
C[C@@H]1COCCN1c1cc(C2([S@](C)(=N)=O)CC2)nc(-c2ccnc3[nH]ccc23)n1 [AZD6738] + O=C(c1cc(Cc2n[nH]c(=O)c3ccccc23)ccc1F)N1CCN(C(=O)C2CC2)CC1 [Olaparib] (first compound max 10 µM, 7x7, partner max 10 µM) | 0.786
